Record type: IC50 measurement. Applies to: human JAK3 (Homo sapiens, UniProt P52333)

>  <Entry Smiles>
COc1cc(Nc2ncc3scc(-c4ccc(CO)cc4)c3n2)cc(OC)c1OC

>  <IC50>
< 0.1 µM

$$$$

Return reported IC50 values for all items listed beneath this line.
1. CC(=O)Nc1cccc(-c2csc3cnc(Nc4ccc(CN5CCOCC5)cc4)nc23)c1
2. CCN1CCC(Oc2ccc(Nc3ncc4scc(-c5cccc(S(=O)(=O)NC(C)(C)C)c5)c4n3)cc2)CC1
3. Nc1ccc(-c2csc3cnc(Nc4ccc(N5CCOCC5)cc4)nc23)cc1[N+](=O)[O-]
4. COc1ccc(Nc2ncc3scc(-c4cccc(S(=O)(=O)NC(C)(C)C)c4)c3n2)cc1OC

RESULT:
["< 0.5 µM", "< 0.1 µM", "< 0.1 µM", "< 0.5 µM"]

Return reported IC50 values for all items listed beneath this line.
1. CC(C)(C)NS(=O)(=O)c1cccc(-c2csc3cnc(Nc4cccc(CO)c4)nc23)c1
2. CS(=O)(=O)Nc1ccc(-c2csc3cnc(Nc4ccc(N5CCOCC5)cc4)nc23)cc1

RESULT:
1. < 0.5 µM
2. < 0.1 µM

Reference for the values: patent US8765755B2
